target-desc: T1, soluble form of GPC3 core protein (human, UniProt P51654 25-563)
T1 construct: not shown: His tag added to the C-terminus
T1 sequence (P51654 25-563 S495A/S509A, form in doubt): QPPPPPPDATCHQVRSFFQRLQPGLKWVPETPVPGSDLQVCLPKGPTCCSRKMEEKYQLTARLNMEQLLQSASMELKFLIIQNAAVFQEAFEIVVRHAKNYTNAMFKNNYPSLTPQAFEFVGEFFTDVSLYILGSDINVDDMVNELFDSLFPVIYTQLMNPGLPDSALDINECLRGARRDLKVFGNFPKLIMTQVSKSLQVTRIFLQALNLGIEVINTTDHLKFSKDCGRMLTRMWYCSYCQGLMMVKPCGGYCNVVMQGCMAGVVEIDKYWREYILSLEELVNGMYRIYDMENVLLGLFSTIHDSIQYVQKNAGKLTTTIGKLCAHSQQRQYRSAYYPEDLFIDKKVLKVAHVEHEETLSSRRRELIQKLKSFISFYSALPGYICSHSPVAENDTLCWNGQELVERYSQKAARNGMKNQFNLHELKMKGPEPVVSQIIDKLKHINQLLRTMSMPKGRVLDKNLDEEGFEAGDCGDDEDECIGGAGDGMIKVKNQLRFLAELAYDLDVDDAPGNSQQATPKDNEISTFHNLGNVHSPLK
assay-text: competitive ELISA on coated soluble GPC3 core protein; labelled competitor biotin-M10D2;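 note: Biotin-labelled antibody added as 10 µL at 10 µg/mL for 1 h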
measure-name: Inhibition of the binding of indicated biotin-Mab to sGPC3 core (%)
Quick note: give the figure in %, leave out the unit.

Record excerpt, results attached:
binder="M1E7 (antibody, human IgG1, kappa, V domains shown, Mouse monoclonal from hybridoma; also called M1E07) VH: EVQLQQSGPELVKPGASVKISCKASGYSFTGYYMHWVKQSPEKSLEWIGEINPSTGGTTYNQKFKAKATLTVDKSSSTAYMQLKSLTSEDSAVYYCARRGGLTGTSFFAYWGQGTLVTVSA VL: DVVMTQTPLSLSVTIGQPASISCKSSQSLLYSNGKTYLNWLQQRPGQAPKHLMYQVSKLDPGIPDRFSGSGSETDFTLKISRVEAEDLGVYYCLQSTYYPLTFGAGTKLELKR" units_label=% numeric_result=14.8
binder="M18D4 (antibody, human IgG1, kappa, V domains shown, Mouse monoclonal from hybridoma) VH: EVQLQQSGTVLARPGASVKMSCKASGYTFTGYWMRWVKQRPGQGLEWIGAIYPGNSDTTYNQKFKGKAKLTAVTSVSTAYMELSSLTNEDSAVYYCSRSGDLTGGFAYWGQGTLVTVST VL: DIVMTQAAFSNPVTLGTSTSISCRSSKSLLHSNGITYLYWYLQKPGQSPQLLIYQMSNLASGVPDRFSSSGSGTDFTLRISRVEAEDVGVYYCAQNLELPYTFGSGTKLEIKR" units_label=% numeric_result=19.1
binder="M10D2 (antibody, V domains shown, Mouse monoclonal from hybridoma) VH: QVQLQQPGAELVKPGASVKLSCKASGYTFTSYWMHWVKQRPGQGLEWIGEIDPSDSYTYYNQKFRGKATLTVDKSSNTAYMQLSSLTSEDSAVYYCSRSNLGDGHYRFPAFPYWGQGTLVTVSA VL: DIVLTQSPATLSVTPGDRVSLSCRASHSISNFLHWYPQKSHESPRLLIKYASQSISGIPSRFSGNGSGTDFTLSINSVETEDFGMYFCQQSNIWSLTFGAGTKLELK" units_label=% numeric_result=79.2

GET /values?readout=Inhibition of the binding of indicated biotin-Mab to sGPC3 core (%)&item= L9G11 (antibody, V domains shown, Mouse monoclonal from hybridoma) VH: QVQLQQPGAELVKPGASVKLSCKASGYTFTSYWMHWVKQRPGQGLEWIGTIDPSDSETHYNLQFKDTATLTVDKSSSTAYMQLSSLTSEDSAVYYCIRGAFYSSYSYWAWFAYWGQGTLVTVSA VL: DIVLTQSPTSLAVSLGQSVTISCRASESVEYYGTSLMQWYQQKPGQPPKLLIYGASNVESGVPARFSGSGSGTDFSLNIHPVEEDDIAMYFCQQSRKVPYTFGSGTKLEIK
1.2
